Cited source for all entries: ChEMBL document CHEMBL4184298

Quick record: IC50, Receptor-type tyrosine-protein kinase FLT3 (Homo sapiens, UniProt P36888).
measurement-label: IC50 (nM)

[[record]]
compound = "Nc1nc(Nc2ccc3c(c2)CC[C@@H](N2CCCC2)CC3)nn1-c1cc2c(nn1)-c1ccccc1CCC2 [BEMCENTINIB]"
endpoint_result = 0.9

[[record]]
compound = "CNc1ncc2c(-c3ccc(N4CCN(C)CC4)nc3)nn(CC3CCCC3)c2n1"
endpoint_result = 8

[[record]]
compound = "CNc1ncc2c(-c3ccc(OC)cc3)nn(CC3OCCO3)c2n1"
endpoint_result = 250

[[record]]
compound = "CNc1ncc2c(-c3ccc(N4CCNCC4)nc3)nn(CC3OCCO3)c2n1"
endpoint_result = 100

[[record]]
compound = "CCN1CCN(c2ccc(-c3nn(CC4CCCC4)c4nc(NC)ncc34)cn2)CC1"
endpoint_result = 100

